Data origin, for the record: PubChem BioAssay (EPA / NIEHS)

Molecular target: Nuclear respiratory factor 1 (Homo sapiens)
Assay: ATG_NRF1_CIS: Attagene CIS-FACTORIAL HepG2 Assay for human Nuclear Respiratory Factor 1 (NRF1) Orphan Gene (AID 2282987)
Details: HepG2 NRF1 cis-element reporter, Attagene multiplex; actives raise or lower the signal
Calls of active or inactive are those of the source. The calls were made as follows: active = hit-call score of the fitted dose curve at least 0.9, where 1 is the maximum; inactive = score below 0.9.
// classify into active, inactive

molecule=C=CCc1ccc(OC)cc1 classification=inactive
molecule=O=C(O)C(Cl)(Cl)Cl classification=inactive
molecule="CC(=O)C(Cl)C(=O)N(C)C (centres undefined)" classification=inactive
molecule=COc1ccc(C=O)cc1OC classification=inactive
molecule=CC(C)c1cccc(C(C)C)c1O classification=inactive

Which outcome did this test record for the molecule `O=C1C(Cl)=C(Cl)C(=O)c2ccccc21` ? inactive

Which outcome was entered for the molecule `NC(=S)Nc1ccccc1` in this test? inactive

Hi, sorry to bother you, what did the test record for `ClCc1cccnc1` ? inactive

What did the test return for Clc1ccc(C2(Cn3cncn3)CC(Br)CO2)c(Cl)c1 (centres undefined) ? active

Please state the recorded outcome for this molecule: `CCOP(=S)(OCC)SCCS(=O)(=O)CC` inactive

Test call, this molecule: `CCCCCCCCCl` inactive

---

Assay: CCTE_Shafer_MEA_acute_burst_percentage_mean: CCTE's Neural Acute Assay for Percentage of Spikes in a Burst, Shafer Lab (AID 2284017)
Active and inactive are the calls of the source. How the source made its calls: active means hit-call score of the fitted dose curve at least 0.9, where 1 is the maximum; inactive means score below 0.9.
Answer with one of the outcomes given here: active, inactive

// below: answered compounds
compound=CCOP(=S)(OCC)SCSP(=S)(OCC)OCC classification=active
compound=CC(C)(c1ccccc1)c1ccc(O)c(C(C)(C)c2ccccc2)c1 classification=active
compound="CCC(=O)C(CC(C)N(C)C)(c1ccccc1)c1ccccc1 (stereo unspecified)" classification=active
compound=C=C(C)C(=O)[O][Sn]([CH2]CCC)([CH2]CCC)[CH2]CCC classification=active

For CC(=O)OC(c1ccccc1)C(Cl)(Cl)Cl (stereo unspecified) , which call appears in the assay record? active

Check the results log: what was the call for `CC(C)(OO)c1ccccc1` ? inactive

GET /call?item= `CC(C)(C)c1cc(O)ccc1O` returns the recorded outcome of this test. active

---

Molecular target: Aryl hydrocarbon receptor (Homo sapiens) (UniProt P35869)
Sequence (P35869 whole entry, looked up): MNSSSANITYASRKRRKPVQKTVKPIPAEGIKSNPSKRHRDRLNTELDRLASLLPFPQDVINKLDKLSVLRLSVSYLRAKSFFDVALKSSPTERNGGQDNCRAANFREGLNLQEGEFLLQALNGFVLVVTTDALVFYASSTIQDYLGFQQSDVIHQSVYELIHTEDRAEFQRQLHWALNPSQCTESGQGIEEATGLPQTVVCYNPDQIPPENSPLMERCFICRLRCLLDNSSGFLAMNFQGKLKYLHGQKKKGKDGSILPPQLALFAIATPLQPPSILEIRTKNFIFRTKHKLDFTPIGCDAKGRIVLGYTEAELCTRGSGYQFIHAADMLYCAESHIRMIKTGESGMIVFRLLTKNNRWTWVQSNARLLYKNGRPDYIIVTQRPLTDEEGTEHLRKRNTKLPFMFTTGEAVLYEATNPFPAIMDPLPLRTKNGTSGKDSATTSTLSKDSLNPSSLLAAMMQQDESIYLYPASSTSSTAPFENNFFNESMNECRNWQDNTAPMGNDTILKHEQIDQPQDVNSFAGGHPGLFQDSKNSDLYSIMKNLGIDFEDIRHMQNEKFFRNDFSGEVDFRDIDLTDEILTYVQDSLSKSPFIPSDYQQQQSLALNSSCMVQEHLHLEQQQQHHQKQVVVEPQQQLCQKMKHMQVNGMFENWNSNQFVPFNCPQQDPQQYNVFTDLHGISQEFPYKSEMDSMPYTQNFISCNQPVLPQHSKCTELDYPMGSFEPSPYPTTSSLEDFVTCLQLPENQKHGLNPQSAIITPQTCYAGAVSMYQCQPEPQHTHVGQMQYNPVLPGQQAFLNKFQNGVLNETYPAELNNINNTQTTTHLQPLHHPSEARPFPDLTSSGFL
Experiment: ATG_Ahr_CIS: Attagene CIS-FACTORIAL HepG2 Assay for human Aryl Hydrocarbon Receptor (Ahr) (AID 2282930)
Conditions: HepG2 AhR cis-factorial reporter transcription; actives raise or lower the signal
The source made the active and inactive calls. The calls were made as follows: active = hit-call score of the fitted dose curve at least 0.9, where 1 is the maximum; inactive = score below 0.9.
Bench note: report the call from active, inactive

Below are worked cases with known answers.
molecule=COc1ccc(C=O)cc1OC classification=inactive
molecule="CC(C#N)CCC#N (stereo not given)" classification=inactive
molecule=COP(=S)(OC)Oc1c(Cl)cc(C)cc1Cl classification=inactive

Now for a further molecule.
For `CCOP(=S)(OCC)SCSP(=S)(OCC)OCC` , which call appears in the assay record? inactive

---

Read-out: Vascular cell adhesion molecule 1 (VCAM1), VCAM1 (gene 7412)
Assay: BSK_MyoF_VCAM1: BioMAP Diversity Plus: MyoF Assay for Vascular cell adhesion molecule 1 (VCAM1) Biomarker Activity (AID 2284231)
Conditions: primary human lung fibroblasts
Activity calls are given as the source filed them. Rule for the calls: active = hit-call score of the fitted dose curve at least 0.9, where 1 is the maximum; inactive = score below 0.9.
Entry note: the call must match one of active, inactive

Answered cases to consult:
entry_smiles=COc1cc(OC)nc(NC(=O)NS(=O)(=O)c2ncccc2C(=O)N(C)C)n1 classification=inactive
entry_smiles=CCOP(=S)(OCC)SCCS(=O)(=O)CC classification=inactive
entry_smiles=Nc1cccc2ccccc12 classification=inactive
entry_smiles=O=C(OC1CCCCC1)c1ccccc1C(=O)OC1CCCCC1 classification=active
entry_smiles=COP(=S)(OC)Oc1c(Cl)cc(C)cc1Cl classification=inactive
entry_smiles=O=Cc1cccc(Oc2ccccc2)c1 classification=inactive

We next turn to a different compound, shown below.
I'd appreciate the recorded outcome for `CC1(C)Cc2cccc(O)c2O1` from this test. inactive

---

Read-out: Vascular endothelial growth factor receptor 2 (Homo sapiens) (UniProt P35968)
Assay: BSK_4H_VEGFRII: BioMAP Diversity Plus: 4H Assay for Vascular endothelial growth factor receptor 2 (VEGFR2) Biomarker Activity (AID 2283031);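 as to AC50: cell-surface VEGFR2 protein level quantified by ELISA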
Conditions: primary human endothelial cells (HUVEC); actives raise or lower the signal
Active and inactive are the calls of the source. How the source made its calls: active means hit-call score of the fitted dose curve at least 0.9, where 1 is the maximum; inactive means score below 0.9.
quantity_measured: AC50

Observe how each entry below is paired with its result.
compound=COc1cc(OC)nc(NC(=O)NS(=O)(=O)c2ncccc2C(=O)N(C)C)n1 assay_result=inactive
compound=ClC1=C(Cl)[C@]2(Cl)[C@H]3[C@H]([C@H]4C=C[C@H]3C4)[C@@]1(Cl)C2(Cl)Cl assay_result="2.01 µM (active)"
compound=CCOP(=S)(OCC)SCSP(=S)(OCC)OCC assay_result=inactive
compound=CN(C)N=O assay_result=inactive
compound="CCCCC(CC)CO[N+](=O)[O-] (stereo not drawn)" assay_result="31.9 µM (active)"

For the compound `O=c1[nH]c(=O)[nH]c(=O)[nH]1` , what AC50 is on record? inactive

---

Molecular target: Estrogen receptor (Homo sapiens)
Assay: OT_ER_ERaERa_0480: Odyssey Thera (OT) 8-hour HEK293T Protein-Complementation Assay for Estrogen Receptor-alpha/-alpha Homodimer (AID 2283351);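 also: rise in fluorescence from reassembled reporter fragments on ERα LBD homodimer in nucleus or whole cell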
Records with an inconclusive call do not appear. Activity calls are given as the source filed them. How the source made its calls: active means hit-call score of the fitted dose curve at least 0.9, where 1 is the maximum; inconclusive means response in the unintended direction; inactive means score below 0.9.
The categories you may choose from are Y (active), N (inactive)

Example cases with answers are listed next.
molecule=C[C@H]1CCCC(=O)CCC/C=C/c2cc(O)cc(O)c2C(=O)O1 classification=Y
molecule=Cc1ccc(N)cc1Cl classification=N
molecule=COP(=S)(OC)Oc1ccc(Sc2ccc(OP(=S)(OC)OC)cc2)cc1 classification=N

Recorded test outcome, item `CCC[CH2][Sn]([CH2]CCC)([CH2]CCC)[O]C(=O)c1ccccc1` N

What outcome does the record of this test show for `C=CC(=O)OCCCCCC(C)C` ? N

---

Read-out: growth arrest and DNA damage 45 (GADD45A), GADD45A (gene 1647)
Assay: LTEA_HepaRG_GADD45A: Life Technologies and Expression Analysis (LTEA) Assay for growth arrest and DNA damage 45 (GADD45A) using HepaRG (AID 2283458)
Conditions: mRNA level, 48 h; actives raise or lower the signal
Calls of active or inactive are those of the source. Rule for the calls: active = hit-call score of the fitted dose curve at least 0.9, where 1 is the maximum; inactive = score below 0.9.
Your answer must be one of the following: label 1 = active, label 0 = inactive

compound="ClC1(Cl)C2(Cl)C3(Cl)C4(Cl)C(Cl)(Cl)C5(Cl)C3(Cl)C1(Cl)C5(Cl)C24Cl (configuration not stated)" classification="label 0"
compound=Cn1sc(Cl)cc1=O classification="label 0"
compound=O=[N+]([O-])c1ccc(O)c([N+](=O)[O-])c1 classification="label 1"
compound=O=C(O)C(F)(F)C(F)(F)C(F)(F)C(F)(F)C(F)(F)C(F)(F)F classification="label 0"
compound=C[C@@H]1C[C@@H]([C@H](O)CC2CC(=O)NC(=O)C2)C(=O)[C@@H](C)C1 classification="label 1"
compound=ClCC(Cl)CCl classification="label 0"
compound=CCN1CCC2(CC1)COc1cc3c(cc12)N(C(=O)c1ccc(-c2ccc(-c4nnc(C)o4)cc2C)cc1)CC3 classification="label 1"
compound=CCCCCCCCc1ccc(O)cc1 classification="label 0"
compound=CC(C)(OO)c1ccccc1 classification="label 0"
compound=Oc1cccc2cccnc12 classification="label 0"

Test call for this compound, please: `NC(=O)O` label 0

Hello, I am checking results. What call was entered for CCC(=O)C(CC(C)N(C)C)(c1ccccc1)c1ccccc1 (configuration not stated) ? label 0

---

Read-out: Fatty Acid-Binding Protein 1 (FABP1), FABP1 (gene 2168)
Assay: LTEA_HepaRG_FABP1: Life Technologies and Expression Analysis (LTEA) Assay for Fatty Acid-Binding Protein 1 (FABP1) using HepaRG (AID 2283494)
Details: mRNA level, 48 h; actives raise or lower the signal
Active and inactive are the calls of the source. Rule for the calls: active = hit-call score of the fitted dose curve at least 0.9, where 1 is the maximum; inactive = score below 0.9.
A correct response names exactly one class from active, inactive

entry_smiles=CC(C)(OO)c1ccccc1 classification=inactive
entry_smiles=C=C(C)C(=O)[O][Sn]([CH2]CCC)([CH2]CCC)[CH2]CCC classification=inactive
entry_smiles=CCCCCCCCc1ccc(O)cc1 classification=active
entry_smiles=CC(C)(c1ccccc1)c1ccc(O)c(C(C)(C)c2ccccc2)c1 classification=active
entry_smiles=CC(C)(C)CC(C)(C)c1ccc(O)cc1 classification=inactive
entry_smiles=O=C(O)C(Cl)(Cl)Cl classification=inactive

With those in mind, consider the next compound.
What call does the record list for `NC(=O)O` ? inactive

---

Experiment: CCTE_Shafer_MEA_acute_cross_correlation_HWHM: CCTE's Neural Acute Assay for Cross Correlation at Half Width at Half Maximum, Shafer Lab (AID 2284026);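 also: percent change per well from pre-dose baseline in spike cross-correlogram half width; hits are a decrease in cross-correlogram half width relative to DMSO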
Calls of active or inactive are those of the source. How the source made its calls: active means hit-call score of the fitted dose curve at least 0.9, where 1 is the maximum; inactive means score below 0.9.
Entry note: the call must match one of Y for active, N for inactive

Examples with answers:
compound=CCCCCCCCc1ccc(O)cc1 classification=Y
compound=CC(=O)[O][Hg][c]1ccccc1 classification=Y
compound=CC(C)(OO)c1ccccc1 classification=N
compound=CC(C)(c1ccccc1)c1ccc(O)c(C(C)(C)c2ccccc2)c1 classification=Y
compound=CC(C)(C)CC(C)(C)c1ccc(O)cc1 classification=Y

Called result for ClC1(Cl)C2(Cl)C3(Cl)C4(Cl)C(Cl)(Cl)C5(Cl)C3(Cl)C1(Cl)C5(Cl)C24Cl (stereo not given) N

For `CC(C)(C)c1cc(O)ccc1O` , what call appears in the results of this test? Y
